Below, each of the compounds is paired with its reported Ki value.
TARGET ENTITY: UniProt P50406
PROTOCOL NOTES: Displacement of [3H]LSD from human recombinant 5-HT6 receptor expressed in CHO-K1 cells incubated for 3 hrs by scintillation counting analysis
The figure you give is taken to be in nM; do not add the unit.

## Task Please report Ki for the following compound: CN1CCC(c2ccc3c(c2)N(S(=O)(=O)c2ccccc2)CC3)CC1
## Result 25

---

TARGET ENTITY: 5-hydroxytryptamine receptor 6 (Homo sapiens)
Sequence (P50406 whole entry): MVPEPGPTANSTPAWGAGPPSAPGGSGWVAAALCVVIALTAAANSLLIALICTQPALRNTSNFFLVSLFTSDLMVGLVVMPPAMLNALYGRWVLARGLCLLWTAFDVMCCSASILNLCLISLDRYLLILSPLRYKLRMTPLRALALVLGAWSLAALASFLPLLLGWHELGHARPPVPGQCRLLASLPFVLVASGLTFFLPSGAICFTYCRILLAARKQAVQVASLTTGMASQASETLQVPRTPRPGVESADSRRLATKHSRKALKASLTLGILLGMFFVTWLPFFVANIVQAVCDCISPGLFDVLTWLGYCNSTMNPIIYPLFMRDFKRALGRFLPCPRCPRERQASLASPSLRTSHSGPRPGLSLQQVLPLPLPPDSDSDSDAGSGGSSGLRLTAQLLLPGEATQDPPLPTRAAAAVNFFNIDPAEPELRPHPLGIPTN
PROTOCOL NOTES: Displacement of [3H]LSD from human recombinant 5-HT6 receptor expressed in CHO-K1 cells at 1 uM incubated for 3 hrs by scintillation counting analysis
Assay type: cell-based
Values of inhibition greater than or equal to 90% map to MET; values below map to NOT MET.

Field: example entries. Status: answers known.
• CN1CCC(c2ccc3c(c2)CN(S(=O)(=O)c2ccccc2)C3)CC1 = NOT MET
• O=S(=O)(c1ccccc1)N1Cc2cccc(C3CCNCC3)c2C1 = MET
• CCN1CCN(c2ccc3c(c2)CN(S(=O)(=O)c2ccccc2)C3)CC1 = NOT MET

## Task inhibition >= 90% for CCCN1CCC(c2cccc3c2CCN3S(=O)(=O)c2ccccc2)CC1 ?
## Result NOT MET

## Task inhibition >= 90% for CCCN1CCN(c2cccc3c2CCN3S(=O)(=O)c2ccccc2)CC1 ?
## Result NOT MET

---

TARGET ENTITY: D(3) dopamine receptor (Homo sapiens)
Sequence (P35462 whole entry): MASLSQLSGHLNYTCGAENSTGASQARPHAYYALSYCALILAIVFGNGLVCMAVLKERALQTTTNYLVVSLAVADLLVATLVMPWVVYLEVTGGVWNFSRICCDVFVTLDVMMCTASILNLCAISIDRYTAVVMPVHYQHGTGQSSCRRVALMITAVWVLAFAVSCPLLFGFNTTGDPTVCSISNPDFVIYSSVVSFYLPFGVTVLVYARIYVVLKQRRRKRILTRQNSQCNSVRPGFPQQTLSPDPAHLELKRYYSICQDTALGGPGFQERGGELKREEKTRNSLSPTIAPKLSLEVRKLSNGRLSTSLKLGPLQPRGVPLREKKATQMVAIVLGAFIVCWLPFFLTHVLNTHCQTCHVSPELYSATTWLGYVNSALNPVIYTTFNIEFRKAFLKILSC
PROTOCOL NOTES: Displacement of [3H]raclopride from human recombinant dopamine D3 receptor expressed in CHO-K1 cells at 1 uM incubated for 120 mins by liquid scintillation counting analysis
Type: cell-based
QUANTITY NAME: inhibition (%)
The figure you give is taken to be in %; do not add the unit.

* O=S(=O)(c1ccccc1)N1CCc2c(C3CCN(C4CCC4)CC3)cccc21 | 9
* CCN1CCN(c2ccc3c(c2)CCN3S(=O)(=O)c2ccccc2)CC1 | 94
* CCCN1CCC(c2ccc3c(c2)CN(S(=O)(=O)c2ccccc2)C3)CC1 | 48
* CN1CCN(c2ccc3c(c2)N(S(=O)(=O)c2ccccc2)CC3)CC1 | 72
* CCN1CCC(c2ccc3c(c2)CCN3S(=O)(=O)c2ccccc2)CC1 | 72

## Task Please report inhibition for the following molecule: CN1CCC(c2ccc3c(c2)CCN3S(=O)(=O)c2ccccc2)CC1
## Result 48

## Task Please report inhibition for the following molecule: CN1CCN(c2cccc3c2CCN3S(=O)(=O)c2ccccc2)CC1
## Result 77

## Task Please report inhibition for the following molecule: O=S(=O)(c1ccccc1)N1Cc2ccc(C3CCNCC3)cc2C1
## Result 3

## Task Please report inhibition for the following molecule: CCCN1CCC(c2ccc3c(c2)CCN3S(=O)(=O)c2ccccc2)CC1
## Result 79

## Task Please report inhibition for the following molecule: O=S(=O)(c1ccccc1)N1CCc2ccc(C3CCNCC3)cc21
## Result 49

## Task Please report inhibition for the following molecule: CN1CCC(c2ccc3c(c2)CN(S(=O)(=O)c2ccccc2)C3)CC1
## Result 34

## Task Please report inhibition for the following molecule: O=S(=O)(c1ccccc1)N1CCc2c(N3CCNCC3)cccc21
## Result 40

---

TARGET ENTITY: UniProt:P50406
PROTOCOL NOTES: Displacement of [3H]LSD from human recombinant 5-HT6 receptor expressed in CHO-K1 cells incubated for 3 hrs by scintillation counting analysis
Note to self: Ki under 0.03 µM means T, ties and anything higher get F.

Field: example entries. Status: answers known.
- CN1CCN(c2cccc3c2CCN3S(=O)(=O)c2ccccc2)CC1: T
- O=S(=O)(c1ccccc1)N1Cc2ccc(C3CCNCC3)cc2C1: F
- CCN1CCC(c2cccc3c2CCN3S(=O)(=O)c2ccccc2)CC1: F
- CN1CCN(c2cccc3c2CN(S(=O)(=O)c2ccccc2)C3)CC1: T
- CN1CCC(c2cccc3c2CCN3S(=O)(=O)c2ccccc2)CC1: F

## Task Does this compound meet the criterion Ki < 0.03 µM? CCCN1CCN(c2cccc3c2CCN3S(=O)(=O)c2ccccc2)CC1
## Result F

## Task Does this compound meet the criterion Ki < 0.03 µM? O=S(=O)(c1ccccc1)N1Cc2cccc(N3CCNCC3)c2C1
## Result T

## Task Does this compound meet the criterion Ki < 0.03 µM? O=S(=O)(c1ccccc1)N1CCc2ccc(C3CCNCC3)cc21
## Result T

## Task Does this compound meet the criterion Ki < 0.03 µM? O=S(=O)(c1ccccc1)N1CCc2ccc(C3CCN(C4CCC4)CC3)cc21
## Result F

## Task Does this compound meet the criterion Ki < 0.03 µM? O=S(=O)(c1ccccc1)N1CCc2cc(C3CCNCC3)ccc21
## Result F

## Task Does this compound meet the criterion Ki < 0.03 µM? CN1CCN(c2ccc3c(c2)N(S(=O)(=O)c2ccccc2)CC3)CC1
## Result T

## Task Does this compound meet the criterion Ki < 0.03 µM? CCCN1CCC(c2ccc3c(c2)N(S(=O)(=O)c2ccccc2)CC3)CC1
## Result F

## Task Does this compound meet the criterion Ki < 0.03 µM? O=S(=O)(c1ccccc1)N1CCc2c(C3CCNCC3)cccc21
## Result T

---

TARGET ENTITY: Histamine H3 receptor (Homo sapiens)
Sequence (Q9Y5N1 whole entry): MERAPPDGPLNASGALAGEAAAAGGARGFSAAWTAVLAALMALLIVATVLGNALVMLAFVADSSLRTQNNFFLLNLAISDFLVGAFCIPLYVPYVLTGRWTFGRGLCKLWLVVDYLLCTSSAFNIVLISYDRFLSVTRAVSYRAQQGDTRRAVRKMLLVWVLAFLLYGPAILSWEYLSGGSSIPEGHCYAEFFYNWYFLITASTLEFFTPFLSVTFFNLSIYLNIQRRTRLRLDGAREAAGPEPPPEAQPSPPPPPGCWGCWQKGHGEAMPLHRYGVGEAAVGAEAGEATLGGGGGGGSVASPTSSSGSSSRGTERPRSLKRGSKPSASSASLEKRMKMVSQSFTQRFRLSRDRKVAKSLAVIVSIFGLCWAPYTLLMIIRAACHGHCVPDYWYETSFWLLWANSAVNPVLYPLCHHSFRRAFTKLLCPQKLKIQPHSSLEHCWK
PROTOCOL NOTES: Displacement of N-alpha-[methyl-3H]methylhistamine dihydrochloride from human recombinant histamine H3 receptor expressed in CHO-K1 cells at 1 uM incubated for 30 mins by liquid scintillation counting analysis
Format: cell-based
Values of inhibition greater than or equal to 40% map to true (1); values below map to false (0).

Field: example entries. Status: answers known.
• CCN1CCC(c2cccc3c2CCN3S(=O)(=O)c2ccccc2)CC1 = true (1)
• O=S(=O)(c1ccccc1)N1CCc2cc(C3CCN(C4CCC4)CC3)ccc21 = false (0)
• CCCN1CCN(c2cccc3c2CCN3S(=O)(=O)c2ccccc2)CC1 = false (0)
• CCCN1CCC(c2ccc3c(c2)CN(S(=O)(=O)c2ccccc2)C3)CC1 = false (0)
• O=S(=O)(c1ccccc1)N1Cc2ccc(C3CCN(C4CCC4)CC3)cc2C1 = false (0)

## Task inhibition >= 40% for O=S(=O)(c1ccccc1)N1Cc2cccc(C3CCNCC3)c2C1 ?
## Result false (0)

## Task inhibition >= 40% for O=S(=O)(c1ccccc1)N1CCc2cc(N3CCNCC3)ccc21 ?
## Result false (0)

## Task inhibition >= 40% for O=S(=O)(c1ccccc1)N1CCc2ccc(C3CCNCC3)cc21 ?
## Result false (0)

## Task inhibition >= 40% for O=S(=O)(c1ccccc1)N1CCc2c(N3CCNCC3)cccc21 ?
## Result false (0)

## Task inhibition >= 40% for CN1CCC(c2cccc3c2CN(S(=O)(=O)c2ccccc2)C3)CC1 ?
## Result false (0)

## Task inhibition >= 40% for CCN1CCN(c2ccc3c(c2)N(S(=O)(=O)c2ccccc2)CC3)CC1 ?
## Result false (0)

## Task inhibition >= 40% for CN1CCN(c2cccc3c2CN(S(=O)(=O)c2ccccc2)C3)CC1 ?
## Result false (0)

## Task inhibition >= 40% for CN1CCN(c2ccc3c(c2)CCN3S(=O)(=O)c2ccccc2)CC1 ?
## Result false (0)

## Task inhibition >= 40% for CCCN1CCN(c2ccc3c(c2)CN(S(=O)(=O)c2ccccc2)C3)CC1 ?
## Result false (0)

## Task inhibition >= 40% for CN1CCN(c2ccc3c(c2)N(S(=O)(=O)c2ccccc2)CC3)CC1 ?
## Result false (0)

## Task inhibition >= 40% for CN1CCN(c2cccc3c2CCN3S(=O)(=O)c2ccccc2)CC1 ?
## Result false (0)

## Task inhibition >= 40% for CN1CCC(c2cccc3c2CCN3S(=O)(=O)c2ccccc2)CC1 ?
## Result false (0)

---

TARGET ENTITY: D(3) dopamine receptor (Homo sapiens)
PROTOCOL NOTES: Displacement of [3H]raclopride from human recombinant dopamine D3 receptor expressed in CHO-K1 cells incubated for 120 mins by liquid scintillation counting analysis
Below, each of the compounds is paired with its reported pKi value.
Convention used: pKi is expressed as -log10 of the molar concentration.

Solved entries (count: 10):
• CCCN1CCC(c2cccc3c2CCN3S(=O)(=O)c2ccccc2)CC1 = 6.42
• CCN1CCC(c2cccc3c2CN(S(=O)(=O)c2ccccc2)C3)CC1 = 6.25
• CCCN1CCC(c2ccc3c(c2)N(S(=O)(=O)c2ccccc2)CC3)CC1 = 7.59
• CN1CCC(c2ccc3c(c2)N(S(=O)(=O)c2ccccc2)CC3)CC1 = 6.92
• CCCN1CCC(c2ccc3c(c2)CCN3S(=O)(=O)c2ccccc2)CC1 = 6.64
• CCCN1CCN(c2cccc3c2CCN3S(=O)(=O)c2ccccc2)CC1 = 7.77
• CCCN1CCN(c2ccc3c(c2)N(S(=O)(=O)c2ccccc2)CC3)CC1 = 8.24
• CCN1CCC(c2ccc3c(c2)CCN3S(=O)(=O)c2ccccc2)CC1 = 6.49
• CCN1CCN(c2ccc3c(c2)CN(S(=O)(=O)c2ccccc2)C3)CC1 = 6.16
• O=S(=O)(c1ccccc1)N1CCc2cc(N3CCNCC3)ccc21 = 6.88

# context switch: different compound, same pKi
## Task Please report pKi for the following compound: CCN1CCC(c2ccc3c(c2)N(S(=O)(=O)c2ccccc2)CC3)CC1
## Result 7.02
